Reference source: ChEMBL document CHEMBL3988442

This listing pairs molecules with measured Percent Effect.
System: Wolbachia pipientis
EXPERIMENT_SUMMARY: Anti-Wolbachia Cell-Based Screen
Format: functional
Set-up: scale not given: in the data most compounds retested in dose-response had high values
CONDITION_SUMMARY: 5 µM
Out of some 48,000 compounds screened, about 13,000 (27%) showed an effect of 50% or more. Some of the results follow.
Respond with the bare value in %.

# annotated cases, reported Percent Effect shown
MOLECULE	Percent Effect / %
Cc1cnn(C2CN(CC(=O)N(C)Cc3ccc(C)o3)C2)c1	-130.6
CCNC(=O)c1ccc2ccc(N(CC)CC)n2c1	1.029
CCc1ncncc1C(=O)N1CCCN(Cc2ccc(C)cc2)CC1	-0.6521

## Task Please indicate recorded Percent Effect of CCC(C)(NCC(=O)N(c1ccccc1)C(C)C)c1nc(C)cs1 (stereo not drawn) measured with Wolbachia pipientis.
## Result -6.604

## Task Determine reported Percent Effect for `CCN1CC2(CCC1=O)CCN(C(=O)c1ccc(Cl)cc1O)CC2` ; test system: Wolbachia pipientis.
## Result -7.361

---

System: Wolbachia pipientis
EXPERIMENT_SUMMARY: Anti-Wolbachia Cell-Based Screen
Format: functional
Parameters: scale not given: in the data most compounds retested in dose-response had high values
CONDITION_SUMMARY: 5 µM
Among all 48,000 compounds or so, about 13,000 (27%) showed an effect of 50% or more. Some of the results follow.
Quick reference: Percent Effect of the listed items.
Lab book: enter the figure in %, no units written.

Use these answered entries as a reference point.
MOLECULE	Percent Effect, %
CCn1c(CN(C)C)nnc1C1CCN(Cc2cnc(C)nc2)CC1	-9.341
Cc1ncc(Cl)c(C(=O)N2CC(=O)N(C)c3ccccc32)n1	-4.054
COc1cccc(CCC2CCCN(C(C)=O)C2)c1 (stereo unspecified)	-117.1

## Task Return value of Percent Effect for input Oc1cc(CCC2CCCCN2)cc(-c2cccnc2)c1 (stereo unspecified) , no commentary.
## Result 13.71

## Task Return Percent Effect (reported value) for this molecule: COc1ccc(CCC2CCCCN2)cc1OC (stereo unspecified)
## Result 89.4

## Task Identify Percent Effect associated with the molecule CC(CC#N)N(C)Cc1ccc(F)cc1C#N (stereo unspecified)
## Result 3.658

## Task Check the records and state Percent Effect for COc1ccc2c(c1)CN(c1cc(N3CCCC3CO)ncn1)CC2 (stereo unspecified)
## Result -11.42

## Task Name the recorded Percent Effect of the molecule listed here: CC(C)=CCN1Cc2nnc(C3CCOCC3)n2C(Cc2c[nH]cn2)C1 (stereo unspecified)
## Result -4.476

## Task Look up Percent Effect of `CCN(CC)[C@@H]1CN(Cc2cnn(C)c2)[C@@H]2COC[C@H]12` and report it.
## Result 6.266

## Task Query Percent Effect for `Cc1cc(F)cc(S(=O)(=O)Nc2noc(C)n2)c1`
## Result -6.165

## Task Give Percent Effect for the following molecule: CN(C)CC1CN(Cc2coc(-c3ccccc3Cl)n2)CCO1 (stereo unspecified)
## Result -0.3444

## Task Find the measured Percent Effect of O=C(c1ccnc(-n2ccnc2)c1)N1CCCC(n2ccnc2)C1 (stereo unspecified) and report it.
## Result 100.2

## Task Could you please provide reported Percent Effect for `CC(C)c1nc(C(=O)N(C)c2ccc(Br)cn2)cs1` ? Thanks!
## Result -16

## Task Indicate its recorded Percent Effect; the molecule in question is CN1CCOC(CNC(=O)Cc2ccccc2F)C1 (stereo unspecified)
## Result -10.58

## Task Give the reported Percent Effect for this molecule. O=C(COCc1ccccc1Cl)N1CCCC(n2cccn2)C1 (stereo unspecified)
## Result 1.04

## Task Name the recorded Percent Effect of the item CC(C)c1noc(C(C)N2CCC(c3nc4ccccc4o3)CC2)n1 (stereo unspecified) in your answer.
## Result 1.795

---

Tested on: Wolbachia pipientis
EXPERIMENT_SUMMARY: Anti-Wolbachia Cell-Based Screen
Type: functional
Set-up: scale not given: in the data most compounds retested in dose-response had high values
CONDITION_SUMMARY: 5 µM
The campaign covered roughly 48,000 compounds. About 13,000 (27%) showed an effect of 50% or more. The list shows a part of the results.
EXPERIMENTAL_READOUT: Percent Effect (%)
Supply the numeric figure in %, leaving out any unit text.

Would you please look over these solved cases?
MOLECULE	EXPERIMENTAL_READOUT	TEST_RESULT
CC(=O)NCC(=O)N1Cc2nccn2CC(CN(C)C(C)C)C1.O=C(O)C(F)(F)F (centres undefined)	Percent Effect	-7.594
Cc1ccc(C(=O)N(C)Cc2csc(Br)c2)c(=O)[nH]1	Percent Effect	125.8
Cc1ccc(C(=O)N(Cc2ccc(F)cc2)C2CC2)c(=O)[nH]1	Percent Effect	-2.478
CCCc1nnc(N2CCN(Cc3ccccc3OC)CC2)o1	Percent Effect	96.58
Cc1ccc(C(=O)N(C)Cc2csc(C)n2)c(=O)[nH]1	Percent Effect	127.5
COc1ccccc1CN1CCN(CCN2CCOC2=O)CC1	Percent Effect	-7.896
COc1ccccc1N1CCN(Cc2nc(C)c(C)o2)CC1	Percent Effect	-4.949
CC(C)CCc1cc(C(=O)O)nc2[nH]c(=O)[nH]c(=O)c12	Percent Effect	107.7

Continue with the next molecule.
## Task Fill in: Percent Effect on Wolbachia pipientis, entry CCc1cnc(CNC(=O)NC2CC(C)(C)OC2(C)C)s1 (centres undefined)
## Result 0.9333

---

Test system: Wolbachia pipientis
EXPERIMENT_SUMMARY: Anti-Wolbachia Cell-Based Screen
Assay type: functional
Set-up: scale not given: in the data most compounds retested in dose-response had high values
CONDITION_SUMMARY: 5 µM
About 13,000 (27%) of roughly 48,000 compounds showed an effect of 50% or more. The list shows a part of the results.
List of Percent Effect values.
Enter your answer as a number in %; do not include the unit.

COMPOUND	UNIT_TAG	TEST_RESULT
COc1cccc(CN2CC(O)CN(S(C)(=O)=O)CC2=O)c1OC (centres undefined)	%	96.57
OCCN1CCN(Cc2cnc3c(-c4ccccc4)cnn3c2)CC1	%	-3.434
CN(C)c1ncccc1CNCc1cccc(O)c1	%	107.5
COc1cccc(CN2CC(O)CN(C(=O)C(C)(C)C)CC2=O)c1OC (centres undefined)	%	116.9
CC(C)=CCN1CCNC(=O)C1CC(=O)N1CCc2sccc2C1 (centres undefined)	%	13
COc1cccc(OC)c1CN1CC(O)CN(S(C)(=O)=O)CC1=O (centres undefined)	%	127.9
CN1CC(=O)N(c2cccc(F)c2)CC12CCN(CCO)C2.O=C(O)C(F)(F)F.O=C(O)C(F)(F)F (centres undefined)	%	1.497
CN(C1CCCC1)C(C)(C)C(=O)NCCNC(N)=O	%	-0.4481
Cc1cnn(CC(=O)NCC2(O)CCCc3ccccc32)c1 (centres undefined)	%	-1.481
CCN(C(=O)NCc1cccnc1N(C)C)C(C)c1cccnc1 (centres undefined)	%	-18.28

## Task Please report the measured Percent Effect for `C[C@]1(O)CN(CC(=O)N2CCCC2)CC[C@@H]1Oc1cccc(F)c1`
## Result 121.7

## Task Read off the recorded Percent Effect for `CNS(=O)(=O)c1ccc(CNC(=O)Nc2ccccn2)s1`
## Result -5.463

## Task Please look at this compound and report its Percent Effect: `O=C(COc1cccc(F)c1)N1C[C@@H](CN2CCCC2)C[C@H](CO)C1`
## Result -0.02776

## Task Give the reported Percent Effect for this compound. CCCn1[nH]cc/c1=N\C(=O)CN1CCCC1Cn1cccn1 (centres undefined)
## Result -1.433

---

Test system: Wolbachia pipientis
EXPERIMENT_SUMMARY: Anti-Wolbachia Cell-Based Screen
Assay type: functional
Design: scale not given: in the data most compounds retested in dose-response had high values
CONDITION_SUMMARY: 5 µM
The whole screen tested about 48,000 compounds, of which about 13,000 (27%) showed an effect of 50% or more. The list shows a part of the results.
# Percent Effect values compiled below
// note: answer is a bare numeric in %

COMPOUND	SUBJECT_OF_TEST	EXPERIMENTAL_READOUT	TEST_RESULT
COc1ccnc(N2CCN(C(=O)CCc3nccs3)CC2)n1	Wolbachia pipientis	Percent Effect	-9.419
COc1ccnc(N2CCN(C(=O)CN3CCCC3=O)CC2)n1	Wolbachia pipientis	Percent Effect	-1.755

## Task Give Percent Effect for CC1c2ncc(COc3cccnc3)n2CCN1Cc1ccco1 (configuration not stated)
## Result 103.4

## Task Report Percent Effect for `Cc1nc(CN(C)C(=O)CN(C)C)nc2c1CCC(=O)N2CCC(C)C`
## Result 66.01

## Task Name the recorded Percent Effect of the compound listed here: Cn1c(SCc2noc(-c3ccsc3)n2)nnc1C1CCS(=O)(=O)C1 (configuration not stated)
## Result -1.02

## Task Please give measured Percent Effect of the following entry: `COc1ccnc(N2CCN(C(=O)Cc3ccc(C)s3)CC2)n1`
## Result 0.2283

## Task Retrieve Percent Effect measured for `Cn1cc(C(=O)N2CC[C@@]3(O)CCN(C(=O)C4CCC4)C[C@H]3C2)cn1` and print it.
## Result -11.15

## Task Give reported Percent Effect value for `Cc1nn(C)c(C)c1CC(=O)N1CCC(N(C)c2cccnn2)CC1`
## Result -21.95
